This listing pairs molecules with measured Ki.
- Target Entity: CCR2 (Homo sapiens, UniProt P41597)
- Construct: Membranes were prepared from THP-1 cells; endogenous in cells
- Protocol Details: CCR2 receptor membrane binding assay ([125I]MCP-1, THP-1 cell membranes, SPA beads)
- Condition Details: dissociation constant hKi; [125I]MCP-1 binding to THP-1 membranes
Readout Type: Ki (µM)

>  <Molecule>
Cc1c(NCC2CCc3ccccc3N2)ncnc1C(=O)N1CCC(N2CCC(N(C)S(C)(=O)=O)CC2)CC1 (stereo not shown) [Example 159gc]

>  <Target Entity>
CCR2 (Homo sapiens, UniProt P41597)

>  <Measurement>
0.026

$$$$
>  <Molecule>
Cc1c(NCC2CCCN(c3ccccc3)C2)ncnc1C(=O)N1CCC(N2CCOCC2)CC1 (stereo not shown) [Example 42]

>  <Target Entity>
CCR2 (Homo sapiens, UniProt P41597)

>  <Measurement>
0.433

$$$$
>  <Molecule>
Cc1c(NCCc2ccc(Cl)c(Cl)c2)ncnc1C(=O)N1CCC(N2CCC[C@@H](O)C2)CC1 [Example 231]

>  <Target Entity>
CCR2 (Homo sapiens, UniProt P41597)

>  <Measurement>
0.215

$$$$
>  <Molecule>
Cc1c(NCc2ccc(C(C)(C)C)cc2)ncnc1C(=O)N1CCC(N2CCC(C#N)CC2)CC1 [Example 202]

>  <Target Entity>
CCR2 (Homo sapiens, UniProt P41597)

>  <Measurement>
0.292

$$$$

====

- Target Entity: CCR2 (Homo sapiens, UniProt P41597)
- Construct: Membranes were prepared from THP-1 cells; endogenous in cells
- Protocol Details: CCR2 receptor membrane binding assay ([125I]MCP-1, THP-1 cell membranes, SPA beads)
- Condition Details: dissociation constant hKi; [125I]MCP-1 binding to THP-1 membranes
pKi: −log10 of the molar value.
Readout Type: pKi

>  <Compound>
CNC(=O)C1(C)CCN(C2CCN(C(=O)c3ncnc(NCc4ccc(C(C)(C)C)cc4)c3C)CC2)CC1

>  <Readout Type>
pKi

>  <Measurement>
5.91

$$$$
>  <Compound>
Cc1nc(NC[C@H]2CC[C@H](c3ccc(F)c(C)c3)O2)c(C)c(C(=O)N2CCC(N3CCC(N(C)S(C)(=O)=O)CC3)CC2)n1 [Example 159ya]

>  <Readout Type>
pKi

>  <Measurement>
7.74

$$$$
>  <Compound>
CCS(=O)(=O)NC1CCN(C2CCN(C(=O)c3ncnc(NCc4ccc(C(C)(C)C)cc4)c3C)CC2)CC1

>  <Readout Type>
pKi

>  <Measurement>
7.39

$$$$
>  <Compound>
Cc1ccc(C2CCC(CNc3ncnc(C(=O)N4CCC(N5CCC(N(C)S(C)(=O)=O)CC5)CC4)c3C)O2)cc1F (stereo not shown) [Example 159na]

>  <Readout Type>
pKi

>  <Measurement>
7.68

$$$$
>  <Compound>
CCc1ccc(CNc2ncnc(C(=O)N3CCC(N4CCC(N(C)S(C)(=O)=O)CC4)CC3)c2C)cc1

>  <Readout Type>
pKi

>  <Measurement>
6.90

$$$$
>  <Compound>
Cc1c(NCCc2ccc(C(C)(C)C)cc2)ncnc1C(=O)N1CCC(N2CCC(N(C)S(C)(=O)=O)CC2)CC1

>  <Readout Type>
pKi

>  <Measurement>
7.57

$$$$
>  <Compound>
COC1CN(C(=O)c2ncnc(NCc3ccc(C(C)(C)C)cc3)c2C)CCC1N1CCC(N(C)S(C)(=O)=O)CC1 (stereo not shown)

>  <Readout Type>
pKi

>  <Measurement>
5.71

$$$$

====

This listing pairs compounds with measured remaining activity at 10 µM.
- Target Entity: CCR2 (Homo sapiens, UniProt P41597)
- Construct: Membranes were prepared from THP-1 cells; endogenous in cells; host or cells: THP-1 cells (membrane preparation)
- Sequence (P41597 1-360 isoform P41597-2): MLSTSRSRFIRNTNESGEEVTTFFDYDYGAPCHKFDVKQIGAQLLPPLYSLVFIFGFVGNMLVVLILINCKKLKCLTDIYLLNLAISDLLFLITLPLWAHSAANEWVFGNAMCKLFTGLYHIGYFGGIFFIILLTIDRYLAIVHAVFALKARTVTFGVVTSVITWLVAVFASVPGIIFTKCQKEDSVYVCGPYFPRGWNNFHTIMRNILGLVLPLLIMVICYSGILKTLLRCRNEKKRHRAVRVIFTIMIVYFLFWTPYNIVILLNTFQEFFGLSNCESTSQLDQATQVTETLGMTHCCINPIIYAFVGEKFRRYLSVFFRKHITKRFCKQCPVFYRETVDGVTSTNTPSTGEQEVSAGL
- Protocol Details: CCR2 receptor membrane binding assay ([125I]MCP-1, THP-1 cell membranes, SPA beads)
- Condition Details: @ 10 μM test compound; THP-1 membranes; read-out: CCR2 % ctrl @ 10 μM
Readout Type: remaining activity at 10 µM (%)

>  <Compound>
Cc1c(NCc2ccc(C(C)(C)C)cc2)ncnc1C(=O)N1CCC(N2CCC(c3ccccc3)C2)CC1 (stereo not shown)

>  <Readout Type>
remaining activity at 10 µM

>  <Measurement>
0

$$$$
>  <Compound>
Cc1c(NCc2ccc(F)c(Cl)c2)ncnc1C(=O)N1CCC(N2CCC(N(C)S(C)(=O)=O)CC2)CC1

>  <Readout Type>
remaining activity at 10 µM

>  <Measurement>
7

$$$$
>  <Compound>
Cc1ccc(COc2ncnc(C(=O)N3CCC(N4CCC(N(C)S(C)(=O)=O)CC4)CC3)c2C)cc1F

>  <Readout Type>
remaining activity at 10 µM

>  <Measurement>
16

$$$$
>  <Compound>
Cc1c(NCc2ccc(C(C)(C)C)cc2)ncnc1C(=O)N1CCC(N2CCC(c3ccncc3)CC2)CC1

>  <Readout Type>
remaining activity at 10 µM

>  <Measurement>
6

$$$$

====

- Target Entity: CCR2 (Homo sapiens)
- Construct: Membranes were prepared from THP-1 cells; endogenous in cells
- Protocol Details: CCR2 receptor membrane binding assay ([125I]MCP-1, THP-1 cell membranes, SPA beads)
- Condition Details: dissociation constant hKi; [125I]MCP-1 binding to THP-1 membranes
Quick rule for you: Ki under 700 nM gets Condition met, anything else gets Condition not met.

>  <Compound>
COc1nc(OCC2CCCC(c3ccccc3)C2)c(C)c(C(=O)N2CCC(N3CCC(N(C)S(C)(=O)=O)CC3)CC2)n1 (stereo not shown)

>  <Class Assignment>
Condition met

$$$$
>  <Compound>
Cc1c(NCCc2ccc(Cl)c(Cl)c2)ncnc1C(=O)N1CCC(N2CCN(C(=O)C(C)C)CC2)CC1

>  <Class Assignment>
Condition not met

$$$$
>  <Compound>
Cc1c(OCC2CCN(c3ccccc3)C2)ncnc1C(=O)N1CCC(N2CCC(N(C)S(C)(=O)=O)CC2)CC1 (stereo not shown)

>  <Class Assignment>
Condition met

$$$$
>  <Compound>
Cc1c(NCc2cccc(-c3ccccc3)c2)ncnc1C(=O)N1CCC(N2CCCOCC2)CC1

>  <Class Assignment>
Condition not met

$$$$
>  <Compound>
O=C(c1ncnc(NCc2cccc(-c3ccccc3)c2)c1Br)N1CCC(N2CCOCC2)CC1

>  <Class Assignment>
Condition not met

$$$$
>  <Compound>
Cc1c(NCC2Cc3cc(Cl)ccc3O2)ncnc1C(=O)N1CCC(N2CCC(N(C)S(C)(=O)=O)CC2)CC1 (stereo not shown) [Example 159rb]

>  <Class Assignment>
Condition met

$$$$

====

- Target Entity: CCR2 (Homo sapiens, UniProt P41597)
- Construct: Membranes were prepared from THP-1 cells; endogenous in cells; host or cells: THP-1 cells (membrane preparation)
- Protocol Details: CCR2 receptor membrane binding assay ([125I]MCP-1, THP-1 cell membranes, SPA beads)
- Condition Details: @ 10 μM test compound; THP-1 membranes; read-out: CCR2 % ctrl @ 10 μM
This listing pairs compounds with measured remaining activity at 10 µM.

>  <Compound>
Cc1c(NCCc2ccc(Cl)c(Cl)c2)ncnc1C(=O)N1CCC(N2CCC(NC(=O)C(C)C)CC2)CC1 [Example 170]

>  <remaining activity at 10 µM>
31%

$$$$
>  <Compound>
CNC(=O)[C@H]1CCN(C2CCN(C(=O)c3ncnc(NCc4ccc(Cl)c(Cl)c4)c3C)CC2)C1 [Example 257]

>  <remaining activity at 10 µM>
14%

$$$$
>  <Compound>
COC1CC(F)(F)CCC1NC1CCN(C(=O)c2ncnc(NCc3ccc(C(C)(C)C)cc3)c2C)CC1 (stereo not shown) [Example 228g]

>  <remaining activity at 10 µM>
6%

$$$$
>  <Compound>
Cc1c(NCc2ccc(C(F)(F)F)c(Cl)c2)ncnc1C(=O)N1CCC(N2CCOCC2)CC1 [Example 47]

>  <remaining activity at 10 µM>
14%

$$$$
>  <Compound>
Cc1c(NCC2CCCN(c3ccccc3)C2)ncnc1C(=O)N1CCC(N2CCOCC2)CC1 (stereo not shown) [Example 42]

>  <remaining activity at 10 µM>
16%

$$$$
>  <Compound>
CNC(=O)[C@@H]1CCN(C2CCN(C(=O)c3ncnc(NCc4ccc(Cl)c(Cl)c4)c3C)CC2)C1 [Example 260]

>  <remaining activity at 10 µM>
20%

$$$$
>  <Compound>
Cc1c(NCc2ccc(C(C)(C)C)cc2)ncnc1C(=O)N1CCC(N2CC(NS(C)(=O)=O)C2)CC1 [Example 223]

>  <remaining activity at 10 µM>
14%

$$$$
